Biological target: T1, IL-13RA2 huFc (human)
T1 construct: Expressed in 293F cells, purified on protein A; also called human IL13RA2; recombinant IL-13RA2
T1 sequence (chain, as listed by the source limits assumed): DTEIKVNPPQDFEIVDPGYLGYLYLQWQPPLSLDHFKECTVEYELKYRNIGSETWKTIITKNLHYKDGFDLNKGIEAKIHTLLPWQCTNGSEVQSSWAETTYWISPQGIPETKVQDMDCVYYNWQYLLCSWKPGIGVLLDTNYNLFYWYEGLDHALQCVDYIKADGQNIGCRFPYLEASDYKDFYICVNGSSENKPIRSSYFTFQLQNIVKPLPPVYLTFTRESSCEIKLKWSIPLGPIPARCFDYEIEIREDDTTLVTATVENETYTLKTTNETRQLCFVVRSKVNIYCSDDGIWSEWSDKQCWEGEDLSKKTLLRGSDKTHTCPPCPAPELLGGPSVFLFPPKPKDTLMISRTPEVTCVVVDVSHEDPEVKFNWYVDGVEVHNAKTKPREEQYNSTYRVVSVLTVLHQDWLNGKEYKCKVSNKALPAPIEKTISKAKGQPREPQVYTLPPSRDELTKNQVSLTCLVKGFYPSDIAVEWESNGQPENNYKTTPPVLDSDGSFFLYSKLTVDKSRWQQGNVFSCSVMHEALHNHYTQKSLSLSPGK
Assay: SPR (Biacore T200), ligand IL13Ra2 on the chip, scFv_Fc as analyte at 6.25 to 100 nM, 1:1 binding fit, flow 30 ul/min
Experimental: IL-13RA2 huFc was coated on the CMS chip by amino coupling, coated to about 500 RU, and the gradiently diluted antibodies were passed through the antigen-coated channel at a flow rate of 30 ul/min as a mobile phase. […] The experimental data was analyzed by BIAevaluation 3.2 and the kinetic curves were fitted using a 1:1 langmuir model. Affinity was determined using the method of Example 5 using biacore T200, and the results are shown as in FIGS. 11B-11G. […]
I'd appreciate it if you could supply kon values for the items below.
Field format: number, assumed M⁻¹ s⁻¹, no unit text.

Fill in the blank: the reported kon of 2D4 (scFv_Fc form) (Fc fusion, not shown: human Fc segment of the eukaryotic expression vector V152) scFv: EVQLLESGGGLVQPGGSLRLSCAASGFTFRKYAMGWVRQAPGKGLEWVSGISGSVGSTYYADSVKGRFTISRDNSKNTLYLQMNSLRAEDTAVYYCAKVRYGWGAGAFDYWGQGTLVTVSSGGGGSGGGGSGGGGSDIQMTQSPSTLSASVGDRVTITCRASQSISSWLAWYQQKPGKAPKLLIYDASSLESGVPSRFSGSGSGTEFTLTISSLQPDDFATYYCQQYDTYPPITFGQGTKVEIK is ____.
646000

Could you tell me which kon is on file for 5D7 (scFv_Fc form) (Fc fusion, not shown: human Fc segment of the eukaryotic expression vector V152) scFv: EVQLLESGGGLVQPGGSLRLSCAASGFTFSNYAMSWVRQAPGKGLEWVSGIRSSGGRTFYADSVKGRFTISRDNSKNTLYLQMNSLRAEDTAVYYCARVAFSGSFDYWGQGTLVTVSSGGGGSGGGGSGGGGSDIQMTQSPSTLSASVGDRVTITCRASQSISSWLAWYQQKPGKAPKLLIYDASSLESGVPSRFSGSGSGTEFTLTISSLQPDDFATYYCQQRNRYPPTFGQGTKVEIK ?
737000

Name the reported kon value associated with the binder 2C7 (scFv_Fc form) (Fc fusion, not shown: human Fc segment of the eukaryotic expression vector V152) scFv: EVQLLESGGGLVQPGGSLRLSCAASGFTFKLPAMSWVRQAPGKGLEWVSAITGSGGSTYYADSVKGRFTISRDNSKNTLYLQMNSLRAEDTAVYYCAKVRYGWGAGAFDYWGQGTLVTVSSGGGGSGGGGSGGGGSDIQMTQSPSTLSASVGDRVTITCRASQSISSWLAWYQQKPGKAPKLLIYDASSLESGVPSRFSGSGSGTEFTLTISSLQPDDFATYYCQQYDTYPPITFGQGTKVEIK
369000

Quick one: kon of 1B11 (scFv_Fc form) (Fc fusion, not shown: human Fc segment of the eukaryotic expression vector V152) scFv: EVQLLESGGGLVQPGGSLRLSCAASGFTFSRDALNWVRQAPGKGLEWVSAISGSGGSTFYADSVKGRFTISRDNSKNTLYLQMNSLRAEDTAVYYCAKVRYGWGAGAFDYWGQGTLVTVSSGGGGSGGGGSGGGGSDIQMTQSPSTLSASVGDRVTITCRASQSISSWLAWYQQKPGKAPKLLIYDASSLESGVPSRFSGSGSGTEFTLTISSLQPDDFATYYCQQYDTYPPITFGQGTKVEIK ?
252000
